Data provenance is ChEMBL document CHEMBL4033790.

experiment: Metabolic stability in mouse liver microsomes assessed as parent compound remaining at 10 uM after 60 mins by LC-MS analysis; type: ADME, microsome; settings: read-out: Stability
Rule: remaining at 1 h, 10 µM below 90% gives yes (1). Equal to or above 90% gives no (0).

Check out these entries, answers already filled in.
Lookup: Criterion: remaining at 1 h, 10 µM strictly below 90%. Is it met by `[2H]C([2H])([2H])Oc1ccc(-n2nc3c4ccc(OC([2H])([2H])[2H])cc4[nH]cc-3c2=O)cc1` ?
Found: no (0)

Lookup: Criterion: remaining at 1 h, 10 µM strictly below 90%. Is it met by `COc1ccc(-n2nc3c4ccc(Br)cc4[nH]cc-3c2=O)cc1` ?
Found: yes (1)

---
Lookup: Criterion: remaining at 1 h, 10 µM strictly below 90%. Is it met by `[2H]C([2H])([2H])Oc1cccc(-n2nc3c4cc(Cl)ccc4[nH]cc-3c2=O)c1` ?
Found: yes (1)

Lookup: Criterion: remaining at 1 h, 10 µM strictly below 90%. Is it met by `[2H]C([2H])([2H])Oc1ccccc1-n1nc2c3ccc(Br)cc3[nH]cc-2c1=O` ?
Found: yes (1)

Lookup: Criterion: remaining at 1 h, 10 µM strictly below 90%. Is it met by `[2H]C([2H])([2H])Oc1ccccc1-n1nc2c3ccc(OC)cc3[nH]cc-2c1=O` ?
Found: no (0)

Lookup: Criterion: remaining at 1 h, 10 µM strictly below 90%. Is it met by `COc1ccc(-n2nc3c4cc(Cl)ccc4[nH]cc-3c2=O)cc1` ?
Found: yes (1)

Lookup: Criterion: remaining at 1 h, 10 µM strictly below 90%. Is it met by `COc1ccc(-n2nc3c4cnc(OC)cc4[nH]cc-3c2=O)cc1` ?
Found: no (0)

Lookup: Criterion: remaining at 1 h, 10 µM strictly below 90%. Is it met by `[2H]C([2H])([2H])Oc1ccc2c3nn(-c4ccc(OC)cc4)c(=O)c-3c[nH]c2c1` ?
Found: no (0)

###

test: Terminal elimination half-life in Wistar rat plasma at 2 mg/kg administered as single dose via oral gavage by HPLC-MS/MS analysis; type: ADME, organism-based; conditions: read-out: beta t1/2 (converted)
Give measured half-life for each item. Keep answers brief.
Numbers only, in h.

Lookup: // returns reported half-life for input `[2H]C([2H])([2H])Oc1ccc(-n2nc3c4ccc(OC)cc4[nH]cc-3c2=O)cc1`
Found: 1.4

Now turn to the next compound.
Lookup: // returns reported half-life for input `COc1ccc(-n2nc3c4ccc(OC)cc4[nH]cc-3c2=O)cc1`
Found: 9

###

tested on: Brain; assay: AUC (0 to 12 hrs) in Wistar rat brain at 10 mg/kg, ip administered as single dose by HPLC-MS/MS analysis; type: ADME, organism-based; parameters: dose 10 mg/kg, time < 12 hr, route intraperitoneal; conditions: in vivo
experimental readout: AUC (ng·h/g)
Give bare numbers, in ng·h/g.

Lookup: // returns reported AUC for input `[2H]C([2H])([2H])Oc1ccccc1-n1nc2c3cc(Cl)ccc3[nH]cc-2c1=O`
Found: 269.03

I would be grateful if you could provide AUC for each of the following entries.
1. COc1ccc(-n2nc3c4ccc(OC)cc4[nH]cc-3c2=O)cc1
2. [2H]C([2H])([2H])Oc1ccc2c3nn(-c4ccc(OC)nc4)c(=O)c-3c[nH]c2c1
3. [2H]C([2H])([2H])Oc1ccc(-n2nc3c4ccc(OC([2H])([2H])[2H])cc4[nH]cc-3c2=O)cc1
4. [2H]C([2H])([2H])Oc1ccc2c3nn(-c4ccc(OC)cc4)c(=O)c-3c[nH]c2c1
5. [2H]C([2H])([2H])Oc1ccc(-n2nc3c4ccc(OC)cc4[nH]cc-3c2=O)cc1

Found:
2177.98
1502.14
2747.67
4125.92
3350.72
